assay explanation: qHTS of pediatric cancer cell lines to identify multiple opportunities for drug repurposing: Primary screen for NB-EBc1 cells (AID 1347095);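 note: plate controls were DMSO neutral control for no effect and bortezomib for full effect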
assay setup: NB-EBc1 neuroblastoma viability, CellTiter-Glo luminescence, 48 h; series mostly up to 46 µM
Records with an inconclusive call do not appear. Activity calls are given as the source filed them. Calls come from the whole dose curve; as a rule, active = well fitted cell-killing curve with a large enough effect; inconclusive = small, poorly fitted or top-dose-only effect; inactive = no such curve, though single readings can be large or run the other way.
experimental endpoint: Potency

Example entries begin here.
>  <molecule>
Nc1ccc(O)c(C(=O)O)c1

>  <experimental endpoint>
Potency

>  <value>
inactive

$$$$
>  <molecule>
CCCCCCCCCCCC(=O)[O][Sn]([CH2]CCC)([CH2]CCC)[O]C(=O)CCCCCCCCCCC

>  <experimental endpoint>
Potency

>  <value>
inactive

$$$$
>  <molecule>
O=C(CCN1CCN(CCO)CC1)N1c2ccccc2Sc2ccc(C(F)(F)F)cc21

>  <experimental endpoint>
Potency

>  <value>
inactive

$$$$
>  <molecule>
c1ccc2sc(SN3CCOCC3)nc2c1

>  <experimental endpoint>
Potency

>  <value>
inactive

$$$$
>  <molecule>
C[N+]1(C)[C@@H]2CC(OC(=O)[C@H](CO)c3ccccc3)C[C@H]1[C@@H]1O[C@@H]12 (stereo not given in full)

>  <experimental endpoint>
Potency

>  <value>
inactive

$$$$

Proceed to the following item.
(Q) Respond only with Potency recorded for O=Cc1ccc(O)c(O)c1O
(A) inactive

====

assay explanation: qHTS assay to identify inhibitors of the type 1 interferon - major histocompatibility complex class I in skeletal muscle: Counter screen cell viability and HiBit confirmation (AID 1347412); note: potency is the fitted concentration of half-maximal effect; nearly all actives have a fitted effect of over 60% in size
assay setup: iHSKM muscle cells + IFN-b, HiBiT or CellTiter-Glo, 24 h; HiBiT
Records with an inconclusive call do not appear. The source made the active and inactive calls. Calls come from the whole dose curve; as a rule, active = well fitted inhibition curve with a large enough effect; inconclusive = small, poorly fitted or top-dose-only effect; inactive = no such curve, though single readings can be large or run the other way.
Recorded measurements of Potency, one per entry

Example entries begin here.
>  <compound structure>
CC(C)(C)c1ccc(S(=O)(=O)/C=C/C#N)cc1

>  <Potency>
2.79 µM (active)

$$$$
>  <compound structure>
CN(C)c1ccc(C(=C2C=CC(=[N+](C)C)C=C2)c2ccccc2)cc1

>  <Potency>
1.98 µM (active)

$$$$
>  <compound structure>
O=C1C(SCCO)=C(SCCO)C(=O)c2ccccc21

>  <Potency>
2.79 µM (active)

$$$$
>  <compound structure>
COc1ccc(/C=C2\COc3ccc(C)cc3C2=O)cc1O

>  <Potency>
14 µM (active)

$$$$
>  <compound structure>
O=[N+]([O-])c1ccc2c(c1)S(=O)(=O)C=C2

>  <Potency>
1.76 µM (active)

$$$$

(Q) Respond only with Potency recorded for Cc1ccc(S(=O)(=O)/C=C/C#N)cc1
(A) 5.57 µM (active)

====

assay explanation: qHTS for Inhibitors of ATXN expression: Validation of Cytotoxic Assay (AID 588349);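 note: cells exposed to compound for 72 hr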
assay setup: cytotoxicity counter-screen for ATXN expression inhibitors, cell viability; series mostly up to 57.1 µM
Inconclusive results are not listed. Calls of active or inactive are those of the source. Calls come from the whole dose curve; as a rule, active = well fitted cell-killing curve with a large enough effect; inconclusive = small, poorly fitted or top-dose-only effect, or effect the other way; inactive = flat fitted curve, though single readings scatter.
I would appreciate it if you answered using one of these outcomes: 1.0 = active, 0.0 = inactive

Illustrative cases are given below, each with its answer.
>  <compound>
CC1OC1P(=O)(O)O (configuration not stated)

>  <category>
0.0

$$$$
>  <compound>
OC[C@H]1O[C@@H](n2cnc3c(NC4CCCCC4)ncnc32)[C@H](O)[C@@H]1O

>  <category>
0.0

$$$$
>  <compound>
Cc1ccccc1CNc1ncnc2c1ncn2C1OC(CO)C(O)C1O (configuration not stated)

>  <category>
0.0

$$$$
>  <compound>
O=C(Nc1ccccc1)c1cc([N+](=O)[O-])ccc1Cl

>  <category>
0.0

$$$$
>  <compound>
COC(=O)c1c(C)[nH]c(C)c1C(=O)c1ccccc1Cc1ccccc1

>  <category>
0.0

$$$$

(Q) Fill in: this test's call for CC(=O)SCC[N+](C)(C)C is ___
(A) 0.0

(Q) Fill in: this test's call for O=C(CCCCCN1CCN(c2ccccc2-c2ccccc2)CC1)NC1CCCc2ccccc21 (configuration not stated) is ___
(A) 1.0

(Q) Fill in: this test's call for O=C1O/C(=C/Br)CCC1c1cccc2ccccc12 (configuration not stated) is ___
(A) 1.0

(Q) Fill in: this test's call for O=C(c1cc(O)c(O)c([N+](=O)[O-])c1)c1ccccc1F is ___
(A) 0.0

(Q) Fill in: this test's call for NC(=S)NCCC[C@H](N)C(=O)O is ___
(A) 0.0

(Q) Fill in: this test's call for N[C@@H](CC(=O)O)C(=O)O is ___
(A) 0.0

(Q) Fill in: this test's call for S=C(S)OC1CC2CC1C1CCCC21 (configuration not stated) is ___
(A) 0.0

====

tested target: Protein phosphatase 1D (Homo sapiens)
assay explanation: Rhodamine-PBP qHTS Assay for Modulators of WT P53-Induced Phosphatase 1 (WIP1) (AID 1347425); note: % of control where 0% means no effect
assay setup: recombinant WIP1, Rhodamine-PBP phosphate fluorescence, real-time; series mostly up to 57.5 µM
Inconclusive results are not listed. Calls of active or inactive are those of the source. Calls come from the whole dose curve; as a rule, active = well fitted curve in the direction sought with a large enough effect; inconclusive = small, poorly fitted or top-dose-only effect, or another doubt; inactive = no such curve, though single readings can be large or run the other way.
experimental endpoint: outcome

Example entries begin here.
>  <compound structure>
CC1(C)S[C@@H]2[C@H](NC(=O)[C@H](N)c3ccccc3)C(=O)N2[C@H]1C(=O)O

>  <outcome>
inactive

$$$$
>  <compound structure>
c1ccc(CCNc2nc(-c3ccccc3)cs2)cc1

>  <outcome>
inactive

$$$$
>  <compound structure>
CCCCCCCC/C=C/C(=O)O

>  <outcome>
inactive

$$$$
>  <compound structure>
c1ccc2sc(SN3CCOCC3)nc2c1

>  <outcome>
inactive

$$$$
>  <compound structure>
Nc1c(CC(=O)O)cccc1C(=O)c1ccc(Br)cc1

>  <outcome>
inactive

$$$$

Proceed to the following item.
(Q) Respond only with outcome recorded for CO[C@@]1(NC(=O)Cc2cccs2)C(=O)N2C(C(=O)O)=C(COC(N)=O)CS[C@@H]21
(A) inactive

====

tested target: ATPase family AAA domain-containing protein 5 (Homo sapiens)
assay explanation: Validation screen for small molecules that inhibit ELG1-dependent DNA repair in human embryonic kidney (HEK293T) cells expressing luciferase-tagged ELG1 (AID 493107); note: nearly all actives have a fitted effect of over 70% in size
assay setup: HEK293T ELG1-luciferase level, luminescence, 5-fluorouridine co-treatment, 16 h; series mostly up to 46.1 µM
Results filed as inconclusive are left out. Active and inactive are the calls of the source. Calls come from the whole dose curve; as a rule, active = well fitted inhibition curve with a large enough effect; inconclusive = small, poorly fitted or top-dose-only effect, or effect the other way; inactive = flat fitted curve, though single readings scatter.
I would appreciate it if you answered using one of these outcomes: 1 (yes) for active, 0 (no) for inactive

Illustrative cases are given below, each with its answer.
>  <molecule>
O=C(c1ccc(Cl)cc1)N1CCN(c2ccc([N+](=O)[O-])c3ncccc23)CC1

>  <tested target>
ATPase family AAA domain-containing protein 5 (Homo sapiens)

>  <category>
1 (yes)

$$$$
>  <molecule>
Nc1nc(Cl)nc2c1ncn2[C@@H]1O[C@H](CO)[C@@H](O)[C@H]1O

>  <tested target>
ATPase family AAA domain-containing protein 5 (Homo sapiens)

>  <category>
0 (no)

$$$$

(Q) Fill in: this test's call for Cn1c(=O)c2[nH]c(-c3ccccc3)nc2n(C)c1=O is ___
(A) 0 (no)

(Q) Fill in: this test's call for CC(=O)N[C@H](C(=O)O)C(C)(C)SN=O is ___
(A) 0 (no)

(Q) Fill in: this test's call for CCN(CC)c1ncnc2c1ncn2[C@@H]1O[C@H](COP(=O)(O)OP(=O)(O)C(Br)(Br)P(=O)(O)O)[C@@H](O)[C@H]1O is ___
(A) 0 (no)

(Q) Fill in: this test's call for c1ccc(-c2ccccn2)nc1 is ___
(A) 0 (no)

(Q) Fill in: this test's call for Cc1ccc(S(=O)(=O)/C=C/C#N)cc1 is ___
(A) 1 (yes)

====

assay explanation: qHTS of pediatric cancer cell lines to identify multiple opportunities for drug repurposing: Primary screen for OHS-50 cells (AID 1347103);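 note: plate controls were DMSO neutral control for no effect and bortezomib positive control for full effect; nearly all actives have a fitted effect of over 40% in size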
assay setup: OHS-50 osteosarcoma viability, CellTiter-Glo luminescence, 48 h; series mostly up to 57.3 µM
Inconclusive results are not listed. Active and inactive are the calls of the source. The call rests on the fitted dose curve; in most records, active means well fitted cell-killing curve with a large enough effect; inconclusive means small, poorly fitted or top-dose-only effect; inactive means no such curve, though single readings can be large or run the other way.
I would appreciate it if you answered using one of these outcomes: TRUE (active), FALSE (inactive)

Illustrative cases are given below, each with its answer.
>  <compound>
CN(C)c1ccc(N=NS(=O)(=O)O)cc1

>  <category>
FALSE

$$$$
>  <compound>
O=C(CS)Nc1ccccc1

>  <category>
FALSE

$$$$
>  <compound>
CC(C)(C)c1nnc(NS(=O)(=O)c2ccc(N)cc2)s1

>  <category>
FALSE

$$$$

(Q) Fill in: this test's call for C=CCCCCCCCCC(=O)O is ___
(A) FALSE

(Q) Fill in: this test's call for Cc1c(Nc2ncccc2C(=O)O)cccc1C(F)(F)F is ___
(A) FALSE

(Q) Fill in: this test's call for COc1cc2c3cc1Oc1cc(ccc1O)C[C@@H]1c4c(cc(OC)c(O)c4Oc4ccc(cc4)C[C@@H]3N(C)CC2)CC[N+]1(C)C is ___
(A) FALSE

(Q) Fill in: this test's call for CC(=O)SCC(CC(=O)c1ccc(C)cc1)C(=O)O (configuration not stated) is ___
(A) FALSE

(Q) Fill in: this test's call for Nc1ccc(O)c([N+](=O)[O-])c1 is ___
(A) FALSE
